- System: CCRF-CEM
- Assay text: In vitro inhibition, CellTiter-Glo (CTG) assay
- Type: cell-based
- Condition set: Homo sapiens, CCRF-CEM, 72 h, 72 hr exposure

Compound: Nc1ccn([C@@H]2O[C@H](COP(=O)(O)NCc3ccccc3)[C@@H](O)C2(F)F)c(=O)n1
IC50: < 1000 nM
--
Compound: CCOC(=O)COP(=O)(N[C@@H](CC(C)C)C(=O)OCC)OC[C@H]1O[C@@H](n2ccc(N)nc2=O)C(F)(F)[C@@H]1O (single isomer, unassigned) [108 (diastereomer 1)]
IC50: < 1000 nM

---

- Test system: HL-60
- Assay text: In vitro inhibition, CellTiter-Glo (CTG) assay
- Assay type: cell-based
- Condition set: Homo sapiens, HL-60, 72 hr exposure
pIC50: −log10 of the molar value.

Compound: CC(C)OC(=O)[C@H](C)NP1(=O)OC[C@H]2O[C@@H](n3ccc(N)nc3=O)C(F)(F)[C@@H]2O1 (single isomer, unassigned) [103 (diastereomer 1)]
pIC50: > 6.00
